Measured values drawn from paper PMC11772769 for this set.

Target: MBP-SNX17V380D (Homo sapiens, UniProt Q15036, V380D)
Construct: M protein marker, R Retriever complex, FL full-length; His (N, cleaved yes); made in house; host or cells: Escherichia coli BL21(DE3)
Sequence (Q15036 whole entry V380D): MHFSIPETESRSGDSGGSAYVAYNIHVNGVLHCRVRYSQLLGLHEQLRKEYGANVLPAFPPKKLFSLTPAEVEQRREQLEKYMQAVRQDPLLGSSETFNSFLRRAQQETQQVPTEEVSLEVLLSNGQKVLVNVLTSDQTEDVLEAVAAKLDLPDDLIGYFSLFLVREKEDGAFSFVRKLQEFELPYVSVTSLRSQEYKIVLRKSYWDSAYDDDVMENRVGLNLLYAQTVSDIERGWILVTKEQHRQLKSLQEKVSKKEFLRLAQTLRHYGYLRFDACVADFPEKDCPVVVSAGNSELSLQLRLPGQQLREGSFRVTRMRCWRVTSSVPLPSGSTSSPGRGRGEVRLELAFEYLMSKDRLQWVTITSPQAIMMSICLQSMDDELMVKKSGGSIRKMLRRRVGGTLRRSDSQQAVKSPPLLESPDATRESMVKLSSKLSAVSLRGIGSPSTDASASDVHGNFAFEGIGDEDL
Experiment: Fluorescence anisotropy binding of 5-FAM peptides to MBP-SNX17 V380D
Settings: 5-FAM peptide, Bmax fixed at 240, replicate Y1 (Fig. 4E source data), read-out: KD MBP-SNX17V380D
Method: Lyophilized peptides were resuspended in 100 mM Hepes pH 8.0 at 5 mg/ml and further diluted in the assay buffer (50 mM Hepes pH 7.5, 300 mM NaCl, and 1 mM DTT). […] Fluorescence anisotropy was measured at 25 °C using Spark 10M Plate Reader (Tecan) with a 485/20 excitation filter and a 535/35 emission filter. The dissociation constants were calculated in GraphPad Prism by nonlinear regression fitting of the experimental data to a one-site total binding model. […]
Where no end group is shown, it is not given here.
Endpoint: Kd

What does the record list as Kd for MNVEIGNPTYKMYE [LRP1 14-mer] ?
> 32 µM
